STUDY TARGET: UniProt Q02779
Sequence (Q02779 whole entry, looked up): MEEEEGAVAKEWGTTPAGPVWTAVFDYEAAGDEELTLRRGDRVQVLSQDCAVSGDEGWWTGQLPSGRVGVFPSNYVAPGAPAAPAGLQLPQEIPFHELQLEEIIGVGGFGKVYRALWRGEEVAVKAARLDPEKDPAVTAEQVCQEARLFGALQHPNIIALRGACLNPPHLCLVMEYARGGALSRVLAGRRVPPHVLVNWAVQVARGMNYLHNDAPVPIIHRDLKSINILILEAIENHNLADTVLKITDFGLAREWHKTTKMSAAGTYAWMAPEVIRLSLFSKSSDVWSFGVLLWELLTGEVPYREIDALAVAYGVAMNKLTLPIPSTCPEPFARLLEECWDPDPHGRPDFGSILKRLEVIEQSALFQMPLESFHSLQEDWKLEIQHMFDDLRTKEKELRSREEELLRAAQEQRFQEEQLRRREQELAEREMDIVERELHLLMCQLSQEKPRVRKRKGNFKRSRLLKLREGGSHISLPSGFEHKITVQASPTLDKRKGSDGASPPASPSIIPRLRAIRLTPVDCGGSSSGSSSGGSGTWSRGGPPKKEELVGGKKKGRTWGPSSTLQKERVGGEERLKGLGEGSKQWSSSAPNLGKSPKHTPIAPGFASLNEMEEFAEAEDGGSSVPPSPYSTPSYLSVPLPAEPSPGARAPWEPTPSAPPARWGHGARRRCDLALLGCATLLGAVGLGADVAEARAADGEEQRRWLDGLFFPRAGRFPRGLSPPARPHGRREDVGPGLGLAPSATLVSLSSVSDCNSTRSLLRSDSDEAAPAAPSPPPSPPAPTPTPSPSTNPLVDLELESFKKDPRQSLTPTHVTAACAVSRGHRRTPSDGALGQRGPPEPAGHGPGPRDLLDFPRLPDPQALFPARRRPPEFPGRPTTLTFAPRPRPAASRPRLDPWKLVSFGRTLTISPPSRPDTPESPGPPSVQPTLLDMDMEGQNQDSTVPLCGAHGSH
PROTOCOL NOTES: Evaluation of inhibitory activity of enzyme units, MLK2 ([γ-33P]-ATP filter assay)
Assay type: biochemical
MEASURED METRIC: IC50 (nM)
State just the number; it will be interpreted in nM.

(Q) Request: IC50, test system UniProt Q02779, entry Cc1cc(-c2nc3c(Nc4cccc(S(N)(=O)=O)c4)c(Br)cnc3[nH]2)c(C)n1-c1ccc(C(=O)N2CCOCC2)cc1 [Example 27]
(A) 178

(Q) Can you check CCS(=O)(=O)N1CC[C@H](Nc2c(Br)cnc3nc(-c4cc(C)n(-c5cccc(OCCOC)c5)c4C)[nH]c23)C1 [Example 21] next?
(A) 243

(Q) Request: CCS(=O)(=O)N1CC[C@H](Nc2c(Br)cnc3nc(-c4cc(C)n(-c5cccc(S(N)(=O)=O)c5)c4C)[nH]c23)C1 [Example 23]
(A) 56

(Q) // same read-out, input: CCS(=O)(=O)N1CC[C@H](Nc2c(Br)cnc3nc(-c4cc(C)n(-c5cccc(NS(C)(=O)=O)c5)c4C)[nH]c23)C1 [Example 12]
(A) 65

(Q) What about this compound? CCS(=O)(=O)N1CC[C@H](Nc2c(Br)cnc3nc(-c4cc(C)n(-c5ccc(S(N)(=O)=O)cc5)c4C)[nH]c23)C1 [Example 24]
(A) 95

(Q) // query: CCS(=O)(=O)N1CC[C@H](Nc2c(Br)cnc3nc(-c4cc(C)n(-c5ccc(OCCOC)cc5)c4C)[nH]c23)C1 [Example 22]
(A) 186

(Q) What do we get for CCS(=O)(=O)N1CC[C@H](Nc2c(Br)cnc3[nH]c(-c4cc(C)n(-c5ccccc5)c4C)nc23)C1 [Example 25] ?
(A) 250
